// IC50 lookup, one value per entry
Molecular target: pseudo-kinase domain (JH2, amino-acids 536-812) of human V617F mutant JAK2 (Homo sapiens, UniProt O60674, F794H/V617F/W659A/W777A)
Construct: pseudo-kinase domain (JH2, amino-acids 536-812 with 3 surface mutations W659A, W777A, F794H)
Sequence (O60674 536-812 V617F/W659A/W777A/F794H): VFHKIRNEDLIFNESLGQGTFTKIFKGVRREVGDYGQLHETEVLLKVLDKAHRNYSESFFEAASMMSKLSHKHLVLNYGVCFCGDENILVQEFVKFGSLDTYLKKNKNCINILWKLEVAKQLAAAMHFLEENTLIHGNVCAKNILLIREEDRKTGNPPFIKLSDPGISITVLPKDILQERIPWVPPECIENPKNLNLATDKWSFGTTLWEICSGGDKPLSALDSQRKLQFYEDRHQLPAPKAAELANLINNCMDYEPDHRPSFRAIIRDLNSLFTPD
Experiment: JAK2 LanthaScreen JH2-V617F Binding Assay
Details: 1 hour at 25° C.
Where a name gives a salt, the structure may show the parent alone.

Consider the worked cases shown below.
CCS(=O)(=O)N1CC2(C1)CC1(C2)C(=O)N(C)c2cnc3[nH]c(-c4cnn(C(C)C)c4)c(-c4ccc5c(cnn5C)c4)c3c21 [Example 54, trifluoroacetate salt]
≤ 100 nM
CN1C(=O)C2(CCN(C3(CC#N)CCC3)CC2)c2c1cnc1[nH]c(-c3cnn(CC(C)(C)O)c3)c(-c3cc4cnccc4s3)c21 [Example 48, trifluoroacetate salt]
≤ 100 nM

# ---- query compound ----
So for O=C(O)C(F)(F)F.[2H]C([2H])([2H])N1C(=O)C2(CC3(CN(S(=O)(=O)CC)C3)C2)c2c1cnc1[nH]c(-c3cnn(CC)c3)c(-c3ccc(OC)cc3)c21 [Example 95] , the logged IC50 turned out to be ≤ 100 nM
